B1: TPR t1 (parent)
chain: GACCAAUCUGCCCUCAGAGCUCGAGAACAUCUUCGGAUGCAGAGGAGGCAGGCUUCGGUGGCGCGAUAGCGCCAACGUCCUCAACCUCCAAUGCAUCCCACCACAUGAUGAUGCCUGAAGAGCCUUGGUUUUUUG

# Variants of: B1
# assayRemarks: polymerase ribozyme fitness, log enrichment relative to wild type (log ratio); higher = more active; in vitro selection for triplet polymerase activity
So basically: polymerase ribozyme fitness (log ratio) at -2 or higher? That is 1. Lower than -2? That is -1.

residuechange="U14A A18U C73A G77C A119U" categorylabel=-1
residuechange="C53A G60C A103C U116C G120C" categorylabel=-1
residuechange="G63C C89A U116C" categorylabel=-1
residuechange="C11U C12U C34A G63U U78C C104G G117C" categorylabel=-1
residuechange="C8G A111U" categorylabel=1
residuechange="U9C C85G" categorylabel=1
residuechange="C3G C73G" categorylabel=-1
residuechange="C53G G61U G77U C101G G120C" categorylabel=-1
residuechange="G36U A46G" categorylabel=1
residuechange="U33A G117U" categorylabel=-1
residuechange="G39C U54G C70A" categorylabel=-1
residuechange="C62A U130G" categorylabel=1
residuechange="C8G G117U" categorylabel=1
residuechange="C8G G44C C70A A84C C115U" categorylabel=-1
residuechange="C8A G42A C62A C114U" categorylabel=-1
residuechange="C64U C88U C97U" categorylabel=1
residuechange="G51A G60A" categorylabel=1
residuechange="A6U C80A U87A" categorylabel=-1
residuechange="C101G U112C" categorylabel=1
residuechange="C82A G110U C123U" categorylabel=-1
residuechange="A18U G69A" categorylabel=-1
residuechange="U54A A95U" categorylabel=1
residuechange="C28G C73U A119G" categorylabel=1
residuechange="C73A A91U C94U" categorylabel=-1
residuechange="C11A G69U" categorylabel=1
residuechange="A50U C64U" categorylabel=1
residuechange="C28U A43G G69U G113A" categorylabel=1
residuechange="A5C G63A C79U" categorylabel=1
residuechange="A24U G61U C88A G117C" categorylabel=-1
residuechange="C80A C114G G117U" categorylabel=-1
residuechange="A74U U126G" categorylabel=1
residuechange="G10A C22G G57C" categorylabel=-1
residuechange="C40U G47A" categorylabel=-1
residuechange="C4U C56A C101A G117C" categorylabel=-1
residuechange="C20A G42C A43G" categorylabel=-1
residuechange="A5U A6G A46C G61A C115G" categorylabel=-1
residuechange="C8U U9A A18U C76G" categorylabel=1
residuechange="G35A U131A" categorylabel=-1
residuechange="C62A U96A" categorylabel=1
residuechange="G60C U96A C101A A119U" categorylabel=-1
residuechange="G35C U129G" categorylabel=-1
residuechange="U14C U78A C80A" categorylabel=-1
residuechange="C13U C40A G61A" categorylabel=1
residuechange="C20U A41C" categorylabel=-1
residuechange="U55G C72G A100C A111U" categorylabel=-1
residuechange="C13U U55A G61C A84U C85G A95G U125G G128U" categorylabel=-1
residuechange="C49A C73A G93U" categorylabel=1
residuechange="A26G C70G" categorylabel=-1
residuechange="A41C G135U" categorylabel=1
residuechange="C62G C115G U125A" categorylabel=-1
residuechange="G39U G63A" categorylabel=1
residuechange="A83G C89A U106G" categorylabel=-1
residuechange="A26U C89A" categorylabel=-1
residuechange="U7G U21C G47U C56U" categorylabel=1
residuechange="A41U G63U" categorylabel=-1
residuechange="A95C G107A" categorylabel=-1
residuechange="C12A C62G C72G" categorylabel=-1
residuechange="C3A C124G" categorylabel=1
residuechange="A6C A46U C56U" categorylabel=1
residuechange="C62G G117U" categorylabel=-1
residuechange="A5C U87G C101U" categorylabel=1
residuechange="G47U C124A U130G" categorylabel=1
residuechange="C28A C85U" categorylabel=-1
residuechange="C12U A37U G63A C85U G93C G120A" categorylabel=1
residuechange="U9G C72U C86A" categorylabel=1
residuechange="U96A C99G G110C" categorylabel=-1
residuechange="C53U C82A A121C" categorylabel=1
residuechange="G110U U129A" categorylabel=-1
residuechange="C28G U106A G117C" categorylabel=-1
residuechange="G23A C97U A121U" categorylabel=-1
residuechange="G35U G39A" categorylabel=-1
residuechange="U7A A41G U92A" categorylabel=1
residuechange="G65A U87G" categorylabel=-1
residuechange="U9G A16G C73G G110A U132A" categorylabel=-1
residuechange="C12U G44C C82G A103G G117C" categorylabel=-1
residuechange="G36A C102A C104A G120U" categorylabel=-1
residuechange="A50U U59C" categorylabel=1
residuechange="C15U C70U G71A" categorylabel=1
residuechange="C11A A18U" categorylabel=-1
residuechange="U32C C62A C82G G120C" categorylabel=-1
residuechange="C22G G45A C88G" categorylabel=-1
residuechange="G42C G63A" categorylabel=-1
residuechange="C88A G113U" categorylabel=-1
residuechange="G35A C101U C115A" categorylabel=-1
residuechange="C13A C104U A118C C124A" categorylabel=1
residuechange="C49U A90G" categorylabel=1
residuechange="C53U G57U A121C" categorylabel=1
residuechange="C64U C82U U106G" categorylabel=1
residuechange="A37U U54A C123U C124G" categorylabel=1
